All values here come from the kinase profiling compilation of Christmann-Franck et al. (2016).

measuredOn: NTRK3 (human) (UniProt Q16288)
Sequence (Q16288 whole entry, looked up): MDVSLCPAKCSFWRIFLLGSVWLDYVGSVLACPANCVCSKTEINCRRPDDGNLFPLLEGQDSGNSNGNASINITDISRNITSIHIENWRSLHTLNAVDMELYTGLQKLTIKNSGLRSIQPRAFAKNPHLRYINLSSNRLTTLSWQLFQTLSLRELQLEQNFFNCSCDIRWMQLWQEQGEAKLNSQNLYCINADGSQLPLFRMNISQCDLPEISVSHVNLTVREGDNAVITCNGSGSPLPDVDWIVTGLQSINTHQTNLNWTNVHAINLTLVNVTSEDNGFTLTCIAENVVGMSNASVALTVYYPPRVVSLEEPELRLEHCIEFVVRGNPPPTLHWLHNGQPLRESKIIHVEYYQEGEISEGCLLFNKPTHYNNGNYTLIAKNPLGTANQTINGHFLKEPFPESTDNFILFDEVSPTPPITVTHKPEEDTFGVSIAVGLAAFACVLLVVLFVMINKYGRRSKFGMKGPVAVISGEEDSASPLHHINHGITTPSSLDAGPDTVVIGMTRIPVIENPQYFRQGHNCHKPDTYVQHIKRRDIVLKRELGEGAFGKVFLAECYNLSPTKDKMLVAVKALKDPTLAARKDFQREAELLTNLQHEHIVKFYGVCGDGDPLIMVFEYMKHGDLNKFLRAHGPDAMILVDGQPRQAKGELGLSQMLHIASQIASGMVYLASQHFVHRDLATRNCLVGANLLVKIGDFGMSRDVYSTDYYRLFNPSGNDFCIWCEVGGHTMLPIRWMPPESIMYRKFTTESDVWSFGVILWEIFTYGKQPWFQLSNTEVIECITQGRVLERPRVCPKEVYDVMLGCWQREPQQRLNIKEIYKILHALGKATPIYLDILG
method: radiometric filter-binding kinase assay, Kinase HotSpot
measurementParameters: compound 0.5 µM; ATP 10 µM
observable: residual activity (%)
Answers are plain numbers, in %.

>>> numericresult("c1ccc(-c2n[nH]cc2-c2ccnc3ccccc23)nc1")
92.7

// input: 4 compounds below; output: residual activity for each
1. O=S(=O)(c1cccc2cnccc12)N1CCCNCC1
2. O=C1NC(=O)/C(=C/c2ccc3c(c2)OC(F)(F)O3)S1
3. COc1cc2ncnc(Nc3cccc(Cl)c3)c2cc1OC
4. CC(C)N(CCC(=O)c1ccc2ccccc2c1)Cc1ccccc1

Completion:
1: 85.5; 2: 98; 3: 86.3; 4: 103
